This collection of values is drawn from patent US20240018122A1.

target: human ALK5 (Homo sapiens (Human), UniProt P36897); assay: ADP-GLO Kinases assay, inhibitory activity on ALK5; type: biochemical; conditions: purified recombinant human ALK5 2.6 nM, TGFβ1 peptide substrate, 25° C, 150 min incubation, ADP-Glo detection; read-out: ALK5 IC50
Sequence (P36897 80-503 limits assumed): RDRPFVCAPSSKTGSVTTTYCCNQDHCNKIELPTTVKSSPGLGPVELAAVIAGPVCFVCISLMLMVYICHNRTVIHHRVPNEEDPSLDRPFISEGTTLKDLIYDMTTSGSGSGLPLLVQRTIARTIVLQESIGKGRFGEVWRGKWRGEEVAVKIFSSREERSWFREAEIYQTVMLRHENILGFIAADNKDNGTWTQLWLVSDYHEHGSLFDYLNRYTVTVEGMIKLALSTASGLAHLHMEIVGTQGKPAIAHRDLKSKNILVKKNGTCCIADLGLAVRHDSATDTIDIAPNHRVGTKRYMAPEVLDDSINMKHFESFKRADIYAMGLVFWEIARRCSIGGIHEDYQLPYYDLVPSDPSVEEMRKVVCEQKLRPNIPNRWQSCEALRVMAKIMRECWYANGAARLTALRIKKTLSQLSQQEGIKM
pIC50: −log10 of the molar value.
MEASURED_ENDPOINT: pIC50

Reference set (3 entries):
> print(dat)
                                   molecule  measured.endpoint  value.measured
1  CN1CCN(C(=O)COc2ccc3c(Nc4cnnc(-c5cc(Cl)ccc5F)c4)ccnc3c2)CC1              pIC50    8.30 to 9.00
2  CN1CCN(CCC(=O)Nc2cc(Nc3cc(-c4cc(Cl)ccc4F)nnc3C(F)(F)F)ccn2)CC1              pIC50          > 9.00
3  Nc1nccc(Nc2cnnc(-c3cc(Cl)ccc3F)c2)n1 [Example C2, reference compound]              pIC50            6.32

Form field: reported pIC50 of Cc1nnc(-c2cc(Cl)ccc2F)cc1Nc1ccnc(NC(=O)CN2CCNCC2)c1
> 9.00

----------
target: human ALK5 (Homo sapiens (Human), UniProt P36897); test: ADP-GLO Kinases assay, inhibitory activity on ALK5; format: biochemical; details: purified recombinant human ALK5 2.6 nM, TGFβ1 peptide substrate, 25° C, 150 min incubation, ADP-Glo detection; read-out: ALK5 IC50
pIC50: −log10 of the molar value.
MEASURED_ENDPOINT: pIC50

Form field: reported pIC50 of Cc1nnc(-c2cc(Cl)ccc2F)cc1Nc1ccnc(NC(=O)CCCN2CCN(C)CC2)c1
> 9.00

Form field: reported pIC50 of CN1CCN(CCOc2ccc3c(Nc4cc(-c5cc(Cl)ccc5F)nnc4C(F)(F)F)ccnc3c2)CC1
> 9.00

----------
target: human ALK5 (Homo sapiens (Human)); test: ADP-GLO Kinases assay, inhibitory activity on ALK5; format: biochemical; conditions: purified recombinant human ALK5 2.6 nM, TGFβ1 peptide substrate, 25° C, 150 min incubation, ADP-Glo detection; read-out: ALK5 IC50
Each item that follows carries a reported IC50.

> print(dat)
                                   compound                   target.or.system  value.measured
1  COC(=O)c1cc2c(Nc3cnnc(-c4cc(Cl)ccc4F)c3)ccnc2cc1OCCN1CCN(C)CC1 [Example 171]  human ALK5 (Homo sapiens (Human))          < 1 nM

Form field: reported IC50 of COC(=O)C1CN(CCC(=O)Nc2cc(Nc3cc(-c4cc(Cl)ccc4F)nnc3C)ccn2)CCN1 (stereo not drawn) [Example 91]
< 1 nM

Form field: reported IC50 of O=C(CCN1CCN(CCO)CC1)Nc1cc(Nc2cc(-c3cc(Cl)ccc3F)nnc2C(F)(F)F)ccn1 [Example 184]
< 1 nM

----------
Each item that follows carries a reported IC50.
Molecular target: human ALK5 (Homo sapiens (Human), UniProt P36897)
Assay: ADP-GLO Kinases assay, inhibitory activity on ALK5
Format: biochemical
Details: purified recombinant human ALK5 2.6 nM, TGFβ1 peptide substrate, 25° C, 150 min incubation, ADP-Glo detection; read-out: ALK5 IC50
Description: The enzymatic activity of compounds of the present invention was monitored measuring the formation of ADP using the ADP-GLO Kinases assay. Following the incubation of the purified enzyme, a substrate and ATP, the produced ADP was converted into ATP, which in turn was converted into light by Ultra-Glo Luciferase. The luminescent signal positively correlated with ADP amount and kinase activity. […]

Reference set (2 entries):
> print(dat)
                                   compound  measured.endpoint  value.measured
1  O=C(CCN1CCCN(CC(F)(F)F)C1)Nc1cc(Nc2cnnc(-c3cc(Cl)ccc3F)c2)ccn1               IC50       1 to 5 nM
2  Cc1nnc(-c2cc(Cl)ccc2F)cc1Nc1ccnc(NC(=O)N2CCC3(CC2)CN(C)C3)c1               IC50          < 1 nM

Form field: reported IC50 of Cc1nnc(-c2cc(Cl)ccc2F)cc1Nc1ccnc(NC(=O)CCN2CCNCC2)c1
< 1 nM

Form field: reported IC50 of CN1CCC2(CC1)CN(C(=O)Oc1ccc3c(Nc4cnnc(-c5cc(Cl)ccc5F)c4)ccnc3c1)C2
< 1 nM

Form field: reported IC50 of COC(=O)CC1CN(C)CCN1CCC(=O)Nc1cc(Nc2cc(-c3cc(Cl)ccc3F)nnc2C)ccn1 (stereo not drawn)
< 1 nM

Form field: reported IC50 of O=C(CCN1CCN(CC(F)(F)F)CC1)Nc1cc(Nc2cnnc(-c3cc(Cl)ccc3F)c2)ccn1
1 to 5 nM
